- Tested on: SNB-19 CNS
- test_protocol: NCI tumour cell line growth inhibition, 48 h
endpoint_label: TGI

API: value(readout=TGI, system=SNB-19 CNS) for record COc1cc(COC(=O)NC(Cc2cccs2)C(=O)O)c([N+](=O)[O-])cc1OC (configuration not stated) > 100 µM

API: value(readout=TGI, system=SNB-19 CNS) for record CC(=O)OCc1cc2c(s1)C(=O)c1sccc1C2=O 0.317 µM

API: value(readout=TGI, system=SNB-19 CNS) for record Cc1cc2c(=O)cc(-c3ccncc3)oc2c(C(=O)O)c1C > 100 µM

API: value(readout=TGI, system=SNB-19 CNS) for record Cn1c(=O)c(Oc2ccc(F)cc2F)cc2cnc(NC3CCC(O)CC3)nc21 (configuration not stated) > 25 µM

API: value(readout=TGI, system=SNB-19 CNS) for record CCCCC(C)(C/C=C/[C@@H]1[C@@H](C(O)CCCCCC(=O)OC)C(=O)C[C@H]1O[Si](C)(C)C(C)(C)C)O[Si](C)(C)C (some centres not stated) > 100 µM

API: value(readout=TGI, system=SNB-19 CNS) for record CC1=CC(=O)N2[C@H](OC[C@@H]2C(C)C)O1 > 100 µM

API: value(readout=TGI, system=SNB-19 CNS) for record CCc1nc2cc(F)ccc2[nH]c1=O > 100 µM

API: value(readout=TGI, system=SNB-19 CNS) for record CCCCCCCCCCCC1=C(O)C(=O)C=C(O)C1=O 25.7 µM

API: value(readout=TGI, system=SNB-19 CNS) for record Nn1c(=S)[nH]nc(/C=C/c2c(O)ccc3ccccc23)c1=O > 100 µM

API: value(readout=TGI, system=SNB-19 CNS) for record CCN(CCCl)c1ccc(NC(=O)c2cc(C(=O)NCCN(C)C)cc(C(=O)Nc3ccc(N(CC)CCCl)cc3)c2)cc1 19.9 µM

API: value(readout=TGI, system=SNB-19 CNS) for record CN1CCN(Cc2ccc(NC(=O)c3cncc(C#Cc4cnc5cccnn45)c3)cc2C(F)(F)F)CC1 5.62 µM

API: value(readout=TGI, system=SNB-19 CNS) for record O=C1CSC(c2cccc(Oc3ccccc3)c2)N1c1cc(Cl)ccc1Cl (configuration not stated) 56.6 µM
